test system: TK-10; assay: NCI tumour cell line growth inhibition, 48 h
Active and inactive are the calls of the source. No stated cut-off is given here; in the data, active = GI50 up to about 1.1 µM and inactive = higher.
Labels: 1 = active, 0 = inactive

Compound	System Name	Category Label
CN1N=C(c2ccncc2)OC1c1ccc(C(F)(F)F)cc1 (stereo not given)	TK-10	0
O=Cc1cn(C(=O)c2ccccc2)c2ccccc12	TK-10	0
O=c1ccc2cc(O)c(O)cc2o1 [ESCULETIN]	TK-10	0
COc1cc2c(cc1OC)-c1[nH]c3ccc([N+](=O)[O-])cc3c1CC(=O)N2	TK-10	0
O=S(=O)(O)c1ccc2c(/N=N/c3ccccc3)c(O)ccc2c1	TK-10	0
CC(=O)NC1C(OCc2ccccc2)OC(CO)C(O)C1OCC(=O)NC(C)C(=O)NC(CCC(=O)NCCCCCNc1c2ccccc2nc2cccc([N+](=O)[O-])c12)C(N)=O (stereo not given)	TK-10	1
Cc1cccc(C2NC(=O)c3ccccc3N2)c1 (stereo not given)	TK-10	0
COc1cccc(-n2nnc3c(N)nc(N)nc32)c1	TK-10	0
O=[N+]([O-])c1cccc(/C=N\NS(=O)(=O)c2ccc(Cl)cc2)c1O	TK-10	0
CC(C)(C)C(=O)/C=C/c1ccc(Oc2ccccc2)cc1	TK-10	0

====

Recorded GI50, one value per entry.
tested on: A549; assay: NCI tumour cell line growth inhibition, 48 h
Calls of active or inactive are those of the source. Rule as the data show it: active = GI50 up to about 1.1 µM and inactive = higher.
Test Readout: GI50

                                   compound  test_readout               result
0  COC(=O)CSC1CC(=O)c2c(Cl)sc(Cl)c21 (stereo not given)          GI50  > 100 µM (inactive)
1  Cc1ccc(C(=O)CC2=Nc3nnc(CCCCCCCc4nnc5n4C(=O)C(CC(=O)c4ccc(C)cc4)=N5)n3C2=O)cc1          GI50  > 100 µM (inactive)
2  C/C(=N\N(C)C)c1sc(-n2nc(-c3ccccc3)cc2-c2ccccc2)nc1C          GI50  > 100 µM (inactive)
3  CCN(CC)c1ccc(C2SCC(=O)N2c2ccc(NC(=O)c3ccc(N4C(=O)CSC4c4ccc(N(CC)CC)cc4)cc3)cc2)cc1 (stereo not given)          GI50  > 100 µM (inactive)
4                          C1CSCC2(COC2)CS1          GI50  > 100 µM (inactive)
5  CN(C)c1ccc(/C=C2\N=C(c3ccccc3)N(c3nc4ccc(Sc5ccccc5)cc4[nH]3)C2=O)cc1          GI50   41.5 µM (inactive)
6  Cc1ccc(-n2c(=O)c3nn4c(=O)n(-c5ccc(C)cc5)c(=O)c4nn3c2=O)cc1          GI50  > 100 µM (inactive)
7  O=C(O)C(CS)Nc1c2ccccc2nc2ccccc12 (stereo not given)          GI50   67.5 µM (inactive)
8  CN1N=C(c2ccncc2)OC1c1ccc(C(F)(F)F)cc1 (stereo not given)          GI50  > 100 µM (inactive)
9  N#Cc1nc(C(CO)N(Cc2ccccc2)C(=O)O)oc1N (stereo not given)          GI50  > 100 µM (inactive)

====

tested on: SK-MEL-28; test: NCI tumour cell line growth inhibition, 48 h
Calls of active or inactive are those of the source. Cut-off read from the data, not from the text of the source: active = GI50 up to about 1.1 µM and inactive = higher.
Recorded GI50 for the following compounds
Test Readout: GI50

In [3]: df
Out[3]:
                                    compound  test_readout                result
 0  O=C(CCN1CCOCC1)Nc1ccc2sc3ccccc3c(=O)c2n1          GI50    53.5 µM (inactive)
 1       CCCOP(=O)(OCCC)OC(C(F)(F)F)C(F)(F)F          GI50   > 100 µM (inactive)
 2  COC1=C(OC)C(O)(c2ccccc2)C1=O (stereo not drawn)          GI50   > 100 µM (inactive)
 3  O=S(=O)(NC1CCCCC1)c1ccc2c(c1)OCCOCCOCCOCCO2          GI50   > 100 µM (inactive)
 4   O=c1n(-c2ccccc2)c(=O)n2n1C1C=CC2CCCCCC1          GI50   > 100 µM (inactive)
 5  CC(=O)O[C@@H]1C(C2CCCCC2)C=[N+]([O-])O[C@@H]1OC1CCCC1(c1ccccc1)c1ccccc1 (stereo partly drawn)          GI50    2.32 µM (inactive)
 6  C/C=C/CC(C(=O)OCC)(N(C)C(=O)OC(C)(C)C)S(=O)(=O)c1ccc(C)cc1 (stereo not drawn)          GI50   > 100 µM (inactive)
 7          COc1cccc(-n2nnc3c(N)nc(N)nc32)c1          GI50   > 100 µM (inactive)
 8        Nc1ccc2c(c1)S(=O)(=O)c1cc(O)ccc1O2          GI50   > 100 µM (inactive)
 9                CCOc1ccccc1NC(=O)CCC(=O)NN          GI50   > 100 µM (inactive)
10  CN1CCN(c2ccc3[nH]c(-c4ccc5[nH]c(-c6ccc(O)cc6)nc5c4)nc3c2)CC1          GI50    19.8 µM (inactive)
11  O=C(Cn1c(=O)oc2ccc(C(=O)c3cccc(Cl)c3)cc21)c1ccccc1          GI50   > 100 µM (inactive)
12  CCCCn1c(-c2ccc([N+](=O)[O-])cc2)cs/c1=N/N=C1\C(=O)Nc2ccc(Br)cc21          GI50    29.4 µM (inactive)
13  CC(C)(C)n1c(=O)n(C(=O)C(Cl)(Cl)Cl)n(C(=O)C(Cl)(Cl)Cl)c1=O          GI50   > 100 µM (inactive)
14  C[C@@H](c1ccccc1)N1CO[C@@]2(C#Cc3ccc4c(c3)OCO4)CCC[C@@H]12          GI50    17.5 µM (inactive)
15  N=c1ccn2c(n1)OC1C(OP(=O)(O)O)C(CO)OC12 (stereo not drawn)          GI50  > 83.4 µM (inactive)
16  ClC1=NN=C(c2c[nH]c3ccccc23)CC1NCc1ccccc1 (stereo not drawn)          GI50   > 100 µM (inactive)
17  Cc1cc(N(CCC#N)CCC#N)ccc1/N=N/c1cccc(C(=O)O)c1          GI50    97.7 µM (inactive)
